Just for reference, the supplement of paper PMC8728848 is where these values come from.

target: Neu5Ac(a2-3)Gal(b1-4)[Fuc(a1-3)]GlcNAc(b1-6)[Gal(b1-3)]GalNAc; assay: glycan array binding signal (z-score within array); higher = stronger binding; details: glycan notation: IUPAC condensed, linker removed
About 410 targets per protein were measured; listed, in parts, are those with the strongest signals and a random draw of the rest.
experimental endpoint: glycan array binding signal (z-score)

Consider the following illustrative entries.
binder | glycan array binding signal (z-score)
FGF1 (Homo sapiens), P05230 (protein) MAEGEITTFTALTEKFNLPPGNYKKPKLLYSNGGHFLRILPDGTVDGTRDRSDQHIQLQLSAESVGEVYIKSTETGQYLAMTDGLLYGSQTPNEECLFLERLEENHYNTYISKHAEKNWFVGLKKNGSCKRGPRTHYGQAILFLPLPASSED | 0.146
CD83 (Homo sapiens) (protein) MSRGLQLLLLSCAYSLAPATPEVKVACSEDVDLPCTAPWDPQVPYTVSWVKLLEGGEERMETPQEDHLRGQHYHQKGQNGSFDAPNERPYSLKIRNTTSCNSGTYRCTLQDPDGQRNLSGKVILRVTGCPAQRKEETFKKYRAETSEQKLISEEDLSRGSDDDDKAEPRGP | -0.12

Documented glycan array binding signal (z-score) of MRCL (Homo sapiens), NP_872425.1 (protein) ATKVHFPFHTCDLRIDGDCFMVSSEADTYYRARMKCQRKGGVLAQIKSQKVQDILAFYLGRLETTNEVTDSDFETRNFWIGLTYKTAKDSFRWATGEHQAFTSFAFGQPDNHGLVWLSAAMGFGNCVELQASAAFNWNNQRCKTRNRYICQFAQEHISRWGPGS : -0.645
